TARGET DESC: c-kit (Homo sapiens, UniProt P10721)
Construct: MO7e (human megakaryocytic leukemia cell line) which had been arrested for 20 hr; endogenous in cells; host or cells: MO7e human megakaryocytic leukemia cell line
Sequence (P10721 26-976): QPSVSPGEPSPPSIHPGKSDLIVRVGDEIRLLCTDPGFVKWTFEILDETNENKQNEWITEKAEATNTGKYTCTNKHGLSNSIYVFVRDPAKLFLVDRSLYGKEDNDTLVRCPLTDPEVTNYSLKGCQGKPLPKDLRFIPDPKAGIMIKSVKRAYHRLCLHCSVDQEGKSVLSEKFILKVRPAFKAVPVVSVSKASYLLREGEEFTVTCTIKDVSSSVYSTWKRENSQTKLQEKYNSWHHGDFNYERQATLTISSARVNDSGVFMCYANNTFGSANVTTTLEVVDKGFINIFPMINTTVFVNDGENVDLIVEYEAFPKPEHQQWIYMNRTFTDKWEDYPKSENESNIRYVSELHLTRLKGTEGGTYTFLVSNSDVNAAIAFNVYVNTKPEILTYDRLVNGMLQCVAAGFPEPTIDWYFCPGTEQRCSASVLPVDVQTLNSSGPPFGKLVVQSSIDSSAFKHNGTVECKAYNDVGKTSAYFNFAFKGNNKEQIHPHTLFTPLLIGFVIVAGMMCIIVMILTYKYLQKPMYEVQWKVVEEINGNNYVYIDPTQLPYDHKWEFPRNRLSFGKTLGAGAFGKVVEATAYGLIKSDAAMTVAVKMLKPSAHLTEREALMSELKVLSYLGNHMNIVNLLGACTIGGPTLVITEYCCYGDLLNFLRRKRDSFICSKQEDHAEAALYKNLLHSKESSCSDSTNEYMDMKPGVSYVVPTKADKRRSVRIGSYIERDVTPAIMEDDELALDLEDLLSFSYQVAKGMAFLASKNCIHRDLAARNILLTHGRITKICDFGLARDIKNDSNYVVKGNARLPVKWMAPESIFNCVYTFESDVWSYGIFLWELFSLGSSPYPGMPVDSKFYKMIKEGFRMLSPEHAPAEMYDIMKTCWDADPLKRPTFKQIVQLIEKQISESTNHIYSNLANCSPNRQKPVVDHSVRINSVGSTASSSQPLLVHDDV
METHOD NOTES: Inhibitory activity against c-kit autophosphorylation (MO7e cells, h-SCF)
Type: cell-based
CONDITION SUMMARY: MO7e cells, h-SCF stimulation; read-out: c-kit IC50
PROPERTY MEASURED: IC50 (nM)
One number for each entry, in nM.

| MOLECULE | TARGET DESC | UNIT | MEAS VALUE |
| --- | --- | --- | --- |
| COc1cccc(C(=O)NC(=S)Nc2ccc(Oc3ccnc4cc(OC)c(OC)cc34)cc2F)c1 [Example 939] | c-kit (Homo sapiens, UniProt P10721) | nM | 220 |
| COc1cc2nccc(Oc3ccc(NCCOc4c(Cl)cccc4Cl)cc3)c2cc1OC [Example 854] | c-kit (Homo sapiens, UniProt P10721) | nM | 313 |

Items follow; give IC50 for each.
1. COc1cc2ncnc(Oc3ccc(NCCOc4ccccc4O)cc3)c2cc1OC [Example 874]
2. COc1cc2nccc(Oc3ccc(NC(=S)NC(=O)c4ccccc4Br)cc3F)c2cc1OC [Example 914]
3. COc1ccc(C(=O)NC(=S)Nc2ccc(Oc3ccnc4cc(OC)c(OC)cc34)c(C)c2C)cc1 [Example 1087]
4. COc1ccc(C(=O)NC(=S)Nc2ccc(Oc3ccnc4cc(OC)c(OC)cc34)c(Cl)c2)cc1OC [Example 1204]
5. COc1cc2ncnc(Oc3ccc(NC(=S)NC(=O)c4cccc(C(F)(F)F)c4)cc3)c2cc1OC [Example 957]
6. COc1cc2nccc(Oc3ccc(NCCOc4cccc(C)c4)cc3)c2cc1OC [Example 871]

Reply |
1: 151; 2: 299; 3: 495; 4: 434; 5: 136; 6: 43

----------
TARGET DESC: PDGF-Ra (Homo sapiens, UniProt P16234)
Construct: host or cells: G-292 human osteosarcoma cells
Sequence (P16234 24-1089): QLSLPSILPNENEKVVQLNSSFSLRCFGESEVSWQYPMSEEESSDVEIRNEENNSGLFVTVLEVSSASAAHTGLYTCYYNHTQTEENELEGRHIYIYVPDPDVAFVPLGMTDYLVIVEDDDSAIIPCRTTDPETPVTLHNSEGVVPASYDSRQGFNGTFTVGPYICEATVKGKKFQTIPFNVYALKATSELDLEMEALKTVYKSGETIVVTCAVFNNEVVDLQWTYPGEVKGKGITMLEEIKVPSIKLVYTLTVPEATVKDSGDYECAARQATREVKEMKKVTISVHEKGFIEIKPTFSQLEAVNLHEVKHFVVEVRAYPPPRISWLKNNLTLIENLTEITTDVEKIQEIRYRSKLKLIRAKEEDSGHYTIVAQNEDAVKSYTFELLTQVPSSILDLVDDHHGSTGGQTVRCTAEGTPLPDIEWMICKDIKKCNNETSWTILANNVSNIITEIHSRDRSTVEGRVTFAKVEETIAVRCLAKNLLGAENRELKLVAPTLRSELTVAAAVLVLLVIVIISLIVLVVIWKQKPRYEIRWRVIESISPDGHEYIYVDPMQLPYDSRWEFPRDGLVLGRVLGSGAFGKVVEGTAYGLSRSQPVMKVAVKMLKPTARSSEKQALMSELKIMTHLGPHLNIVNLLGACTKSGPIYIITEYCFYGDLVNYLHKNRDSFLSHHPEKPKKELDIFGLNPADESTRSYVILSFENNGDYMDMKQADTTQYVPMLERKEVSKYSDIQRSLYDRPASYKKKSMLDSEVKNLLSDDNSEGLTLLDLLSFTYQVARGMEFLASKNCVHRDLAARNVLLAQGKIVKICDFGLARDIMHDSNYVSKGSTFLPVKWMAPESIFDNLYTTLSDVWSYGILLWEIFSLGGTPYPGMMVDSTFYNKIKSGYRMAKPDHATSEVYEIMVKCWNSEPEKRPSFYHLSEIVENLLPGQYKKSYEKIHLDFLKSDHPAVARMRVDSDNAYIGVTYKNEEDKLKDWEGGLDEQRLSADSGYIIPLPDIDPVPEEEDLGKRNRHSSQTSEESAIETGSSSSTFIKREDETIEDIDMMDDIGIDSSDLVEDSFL
METHOD NOTES: Inhibitory activity against PDGF-Ra phosphorylation by PDGF-AA stimulation using G292
Type: cell-based
CONDITION SUMMARY: > means inhibition at indicated concentration not more than 50%, < and << not less than 50%; read-out: PDGF (E) IC50
PROPERTY MEASURED: IC50

Known results for molecules:
| MOLECULE | MEAS VALUE |
| --- | --- |
| COc1cc2ncnc(Oc3ccc(NC(=S)NC(=O)c4ccc(CCl)cc4)cc3)c2cc1OC | < 10 nM |
| COc1cc2ncnc(Oc3ccc(NC(=S)NC(=O)C4CCCC4)cc3)c2cc1OC | < 10 nM |
| CCCC(CCN1CCCCC1)OC(=O)Nc1ccc(Oc2ccnc3cc(OC)c(OC)cc23)cc1 (stereo not shown) | > 100 nM |
| COc1cc2ncnc(Oc3ccc(N(C)C(=O)OC4CCCCC4)cc3)c2cc1OC | < 10 nM |
| COc1cc2nccc(Oc3cc(C)c(NC(=O)OCCN4C(=O)c5ccccc5C4=O)cc3C)c2cc1OC | > 100 nM |
| COc1cc2nccc(Oc3ccc(NCCOc4c(C)cccc4C)cc3C)c2cc1OC | > 30 nM |
| COc1cc2nccc(Oc3ccc(NC(=S)NCCN(C)C)c(C)c3C)c2cc1OC | > 100 nM |
| COc1cc2nccc(Oc3ccc(NC(=S)NC(=O)CCSC)cc3Cl)c2cc1OC | < 10 nM |

Items follow; give IC50 for each.
1. CCCCC(C)C(=O)NC(=S)Nc1ccc(Oc2ccnc3cc(OC)c(OC)cc23)cc1 (stereo not shown)
2. COc1cc2nccc(Oc3cc(C)c(NC(=S)NCCCN4CCCCC4C)cc3C)c2cc1OC (stereo not shown)
3. CCCC(CCN1CCOCC1)OC(=O)Nc1cc(C)c(Oc2ccnc3cc(OC)c(OC)cc23)cc1C (stereo not shown)
4. COc1cc2ncnc(Oc3ccc(NC(=O)OCc4ccccc4Cl)c([N+](=O)[O-])c3)c2cc1OC
5. CCCC1CCC(C(=O)NC(=S)Nc2ccc(Oc3ccnc4cc(OC)c(OC)cc34)c(Cl)c2)CC1 (stereo not shown)

Reply |
< 10 nM
> 100 nM
> 100 nM
46 nM
> 100 nM
